Assay: Plasma protein binding in cynomolgus monkey
Assay type: ADME, cell-free, Macaca fascicularis
Settings: read-out: PPB (converted)
Entries and their measured fraction unbound follow.
Lab note: write the figure by itself, no unit.

CCNc1nc(Nc2cc(F)c(C(=O)N3CCOCC3)cc2OC)ncc1C(F)(F)F | 0.055

Return reported fraction unbound; argument: COc1cc(C(=O)N2CCOCC2)c(F)cc1Nc1ncc(C(F)(F)F)c(NC2CC2)n1
0.045

* * *

Entries and their measured Ratio follow.
Tested on: MDCK
Assay: Efflux ratio of permeability from basolateral to apical over apical to basolateral side in MDCK cells expressing human MDR1
Conditions: dog
Lab note: write the figure by itself, no unit.

Return reported Ratio; argument: CNc1nc(Nc2cc(C)c(C(=O)N3CCOCC3)cc2OC)ncc1C(F)(F)F
3.1
